# Measured on: human CA-XII (Homo sapiens)
# Construct: purchased Creative BioMart CA12-261H
# Sequence (O43570 25-354): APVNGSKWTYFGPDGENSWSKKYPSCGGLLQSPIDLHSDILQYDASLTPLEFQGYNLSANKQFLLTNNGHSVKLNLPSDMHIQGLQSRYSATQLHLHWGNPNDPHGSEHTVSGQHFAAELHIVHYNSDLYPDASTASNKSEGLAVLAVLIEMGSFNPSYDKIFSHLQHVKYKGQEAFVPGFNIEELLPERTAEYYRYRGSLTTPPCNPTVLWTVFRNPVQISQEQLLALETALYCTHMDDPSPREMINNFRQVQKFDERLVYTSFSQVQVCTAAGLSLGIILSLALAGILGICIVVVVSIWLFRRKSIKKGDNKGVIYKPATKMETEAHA
# Assay summary: Surface Plasmon Resonance (SPR) binding kinetics to recombinant human CA-XII (Biacore 8K, single-cycle kinetics, 1:1 binding model)
# Conditions used: Chelated Metal: Lu-175, 25° C., pH 7.4, read-out: CAXII KD
# Description: G1. Surface Plasmon Resonance Assay Conditions for hCA-IX and hCA-XII Surface Plasmon Resonance (SPR) experiments were conducted on a Biacore 8K instrument (Cytiva, Marlborough, MA) to determine the binding kinetics of the compound to recombinant human CA-IX (Acro, CA9-H82E3) and CA-XII (Creative BioMart, CA12-261H) proteins. […]
pKd: −log10 of the molar value.
Assay metric: pKd

NS(=O)(=O)c1nnc(NC(=O)C23CC(c4cn(CCNC(=O)[C@@H]5CN(C(=O)CN6CCN(CC(=O)O)CCN(CC(=O)O)CCN(CC(=O)O)CC6)CCN5C(=O)C[C@H](NC(=O)C[C@H](NCc5ccc(C6CC6)cc5)C(=O)O)C(=O)O)nn4)(C2)C3)s1.[Lu+3] : < 8.00

Q: Need pKd of CC(CCCC(=O)N1CCOC[C@H]1C(=O)N[C@@H](CC(=O)N1CCN(C(=O)CN2CCN(CC(=O)O)CCN(CC(=O)O)CCN(CC(=O)O)CC2)C[C@H]1C(=O)NCCn1cc(C23CC(c4cn5nc(S(N)(=O)=O)sc5n4)(C2)C3)nn1)C(=O)O)(c1ccc(O)cc1)c1ccc(O)cc1.[Lu+3] , thanks.
Ans: 8.60 to 9.00

Q: Need pKd of CC(CCC(=O)N[C@@H](CC(=O)N[C@@H](Cc1cn([C@@H](CCCCn2cc(C34CC(C(=O)Nc5nnc(S(N)(=O)=O)s5)(C3)C4)nn2)C(=O)NCCOCCOCCNC(=O)CN2CCN(CC(=O)O)CCN(CC(=O)O)CCN(CC(=O)O)CC2)nn1)C(=O)O)C(=O)O)(c1ccc(O)cc1)c1ccc(O)cc1.[Lu+3] , thanks.
Ans: 8.00 to 8.60

Q: Need pKd of NS(=O)(=O)c1nnc(NC(=O)C23CC(c4cn(C[C@H]5CN(C(=O)CN6CCN(CC(=O)O)CCN(CC(=O)O)CCN(CC(=O)O)CC6)CCN5C(=O)C[C@H](NC(=O)[C@@H]5COCCN5C(=O)Cc5n[nH]c6ccccc56)C(=O)O)nn4)(C2)C3)s1.[Lu+3] , thanks.
Ans: < 8.00

====

# Measured on: human CA-IX (Homo sapiens)
# Construct: purchased Acro CA9-H82E3
# Assay summary: Surface Plasmon Resonance (SPR) binding kinetics to recombinant human CA-IX (Biacore 8K, single-cycle kinetics, 1:1 binding model)
# Conditions used: Chelated Metal: Lu-175; SPR, 25° C., pH 7.4; read-out: CAIX KD
# Protocol: G1. Surface Plasmon Resonance Assay Conditions for hCA-IX and hCA-XII Surface Plasmon Resonance (SPR) experiments were conducted on a Biacore 8K instrument (Cytiva, Marlborough, MA) to determine the binding kinetics of the compound to recombinant human CA-IX (Acro, CA9-H82E3) and CA-XII (Creative BioMart, CA12-261H) proteins. […]
Assay metric: Kd

CC(CCC(=O)N[C@@H](CC(=O)N[C@@H](CC(=O)NC1(C(=O)NCCOCCOCCNC(=O)CN2CCN(CC(=O)O)CCN(CC(=O)O)CCN(CC(=O)O)CC2)CN(C(=O)Cn2cc(CCCCC(=O)Nc3nnc(S(N)(=O)=O)s3)nn2)C1)C(=O)O)C(=O)O)(c1ccc(O)cc1)c1ccc(O)cc1.[Lu+3] [Compound 103.4] : 2.5 to 10 nM

Q: Need Kd of CC(CCCC(=O)N1CCC(C(=O)O)(C(=O)NCC(=O)N[C@@H](CCCCn2cc(CCCC(=O)Nc3nnc(S(N)(=O)=O)s3)nn2)C(=O)NCCOCCOCCNC(=O)CN2CCN(CC(=O)O)CCN(CC(=O)O)CCN(CC(=O)O)CC2)CC1)(c1ccc(O)cc1)c1ccc(O)cc1.[Lu+3] [Compound 102.1] , thanks.
Ans: < 1 nM
